Attribution: the Human Domainome abundance scans (Beltran et al. 2025)

B1: Kinesin-like protein KIF16B, residues 1213 to 1273; numbered along this chain, Q96L93 (parent)
chain: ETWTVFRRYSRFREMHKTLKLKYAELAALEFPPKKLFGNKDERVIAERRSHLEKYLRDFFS

# Variants of: B1
# Run Description: abundance fitness (aPCA) (normalised: wild type 0, dead -1); higher = more abundant; growth selection in yeast, the domain comes from the species named
# Condition Parameters: Homo sapiens
# Lookup of reported abundance fitness keyed by entry
Keep it simple and answer with nothing but the number.

Completed entries (count: 5):
>>> obs_value("F6Y")
-0.69
>>> obs_value("F59E")
-0.627
>>> obs_value("M15S")
-0.908
>>> obs_value("K22T")
-0.207
>>> obs_value("F6L")
-0.242

Next variant, abundance fitness to be filled in.
So, L52T ? Its abundance fitness was -0.363
